- System: A549-ACE2 infected with SARS-CoV-2
- measurement_protocol: SARS-CoV-2 infection rate relative to DMSO; higher = more infection
- experimental_context: 3 µM; 24 h
measurement_label: SARS-CoV-2 infection rate
Note: state the figure and append the unit.

// known answers, use as guide
COc1cc2c(cc1OC)-c1c/c(=N\c3c(C)cc(C)cc3C)n(C)c(=O)n1CC2 [trequinsin]; 93%
CCn1c(-c2nonc2N)nc2cncc(C(=O)N3CC[C@H](N)C3)c21; 105%
CC(=O)OC[C@H]1O[C@@H]([S-])[C@H](OC(C)=O)[C@@H](OC(C)=O)[C@@H]1OC(C)=O.CCP(CC)CC.[Au+] [auranofin]; 64%
CC/C(=C(\c1ccc(O)cc1)c1ccc(OCCN(C)C)cc1)c1ccccc1 [afimoxifene]; 47%

Query (compound): O=C(CCCN1CCC2(CC1)C(=O)N(Cc1cccc(F)c1)CN2c1ccccc1)c1ccc(F)cc1 [3'-fluorobenzylspiperone] ; field requested: SARS-CoV-2 infection rate
17%

Now the same for CO[C@H]1C[C@H](O[C@@H]2/C(C)=C/C[C@@H]3C[C@@H](C[C@]4(CC[C@H](C)[C@@H](C5CCCCC5)O4)O3)OC(=O)[C@@H]3C=C(C)/C(=N/O)[C@H]4OC/C(=C\C=C\[C@@H]2C)[C@]43O)O[C@@H](C)[C@@H]1O [selamectin]
79%

----------
Listed molecules paired with reported cell viability
- Tested on: U2OS
- measurement_protocol: cell viability relative to DMSO; higher = less toxic
- experimental_context: 72 h; 10 nM
// return numeric value only (unit: %, not printed)

// known answers, use as guide
COc1ccc(S(=O)(=O)N2c3ccc(Cl)cc3[C@](O)(c3ccccc3Cl)[C@@H]2C(=O)N2CCC[C@H]2C(N)=O)cc1OC [relcovaptan]; 105
CC(=O)OC[C@H]1O[C@@H]([S-])[C@H](OC(C)=O)[C@@H](OC(C)=O)[C@@H]1OC(C)=O.CCP(CC)CC.[Au+] [auranofin]; 98.2
COc1cc2nc(N3CCN(C(=O)COc4c(OC)cccc4C(C)C)CC3)nc(N)c2cc1OC [Rec-15/2615]; 97.9
CC1CNc2c(cccc2S(=O)(=O)N[C@@H](CCCNC(=N)N)C(=O)N2CC[C@@H](C)C[C@@H]2C(=O)O)C1 (mixture of isomers) [argatroban]; 104
Cc1cccc(-c2[nH]c(CNc3ccccc3F)nc2-c2ccc3ncnn3c2)n1 [EW-7197]; 99.4

Query (molecule): CC(C)(C)c1cc(C=C(C#N)C#N)cc(Br)c1O [AG-1024] ; field requested: cell viability
106

Now the same for N#Cc1cn([C@@H]2O[C@H](CO)[C@@H](O)[C@H]2O)c2ncnc(N)c12 [toyocamycin]
56.7

Now the same for N[C@H](C(=O)O)c1ccc(O)cc1 [oxfenicine]
103

----------
Listed molecules paired with reported cell viability
- Tested on: Calu-3
- measurement_protocol: cell viability relative to DMSO; higher = less toxic
- experimental_context: 72 h; 1000 nM
// return numeric value only (unit: %, not printed)

// known answers, use as guide
Cc1c(-c2cnccn2)ssc1=S; 96.5
COc1cc(OC)c(C(=O)CCCCN2CCC3(CC2)NC(=O)NC3=O)cc1NS(=O)(=O)c1ccc(C(F)(F)F)cc1; 93.9
Cc1ccccc1C(=O)c1ccc(Nc2ccc(Br)cc2N)cc1Cl; 90.8
NC[C@@H](O)CC(=O)O [aminohydroxybutyric-acid]; 95.1
CCCCCCCCCCCC(=O)O; 100

Tell me reported cell viability for `O=C(O)c1ccccc1O` , tested with Calu-3.
88.9

Now the same for `COc1cc2nc(N3CCN(C(=O)COc4c(OC)cccc4C(C)C)CC3)nc(N)c2cc1OC`
95.4

Now the same for `Cc1ccc(=O)n(-c2ccccc2)c1`
103

Now the same for CCC(C)(CN(C)C)OC(=O)c1ccccc1 (stereo not given)
102

Now the same for CC[C@@]1(O)C(=O)OCc2c1cc1n(c2=O)Cc2cc3cc(O)ccc3nc2-1 [10-hydroxycamptothecin]
31.4

Values from the supplement of paper PMC13380429
